Ref: patent US9839642B2

molecular target: VIM-1 (Pseudomonas aeruginosa, UniProt A0A0F7KYQ8); assay: Enzyme activity: determination of IC50, fluorescence assay with CCF2-FA substrate; type: biochemical; conditions: enzyme 30 pM, CCF2-FA 1.25 μM, 2 hours at 25° C.; read-out: VIM1 IC50
Decide using IC50 alone. Strictly below 40 nM: True. Equal to or above 40 nM: False.

Before answering, review these 5 worked examples.
>  <Molecule>
CC(C)[C@H](C(=O)O)[C@H](Cc1ccc(-c2cn[nH]c2)cc1)c1nnn[nH]1 [Example 62]

>  <Label>
True

$$$$
>  <Molecule>
CC(C)C[C@H](C(=O)O)[C@H](Cc1ccc(Br)cc1)c1nnn[nH]1 [Example 25]

>  <Label>
True

$$$$
>  <Molecule>
O=C(O)[C@@H](C1CCCC1)[C@H](Cc1ccccc1)c1nnn[nH]1 [Example 17]

>  <Label>
True

$$$$
>  <Molecule>
CCC[C@H](C(=O)O)[C@H](Cc1ccccn1)c1nn[nH]n1 [Example 154]

>  <Label>
False

$$$$
>  <Molecule>
O=C(O)[C@@H](C1CCCC1)[C@H](Cc1ccc(C2=CCNC2)cc1)c1nnn[nH]1 [Example 61]

>  <Label>
True

$$$$

Qu. Is the reported IC50 for CCC[C@H](C(=O)O)[C@H](Cc1ccc(NC)cn1)c1nnn[nH]1 [Example 151] strictly below 40 nM?
Ans. False

Qu. Moving on to O=C(O)[C@@H](CCCCO)[C@H](Cc1ccccc1)c1nnn[nH]1 [Example 32]
Ans. False

Qu. What would you report for CCC[C@H](C(=O)O)[C@H](Cc1ccc(-c2ccc3c(c2)OCC(=O)N3)cn1)c1nnn[nH]1 [Example 169] ?
Ans. True

---

biological target: IMP-1 (Serratia marcescens, UniProt P52699); test: Enzyme activity: determination of IC50, fluorescence assay with CCF2-FA substrate; assay type: biochemical; details: enzyme 2 pM, CCF2-FA 1.25 μM, 2 hours at 25° C.; read-out: IMP1 IC50
Sequence (P52699 19-246, looked up, species assumed): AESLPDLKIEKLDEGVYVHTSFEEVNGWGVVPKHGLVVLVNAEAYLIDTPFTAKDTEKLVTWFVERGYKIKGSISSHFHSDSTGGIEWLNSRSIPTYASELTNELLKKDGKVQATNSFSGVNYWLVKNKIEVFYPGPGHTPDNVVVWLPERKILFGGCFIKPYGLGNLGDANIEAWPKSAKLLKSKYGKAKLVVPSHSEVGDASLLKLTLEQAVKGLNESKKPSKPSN
Reported pIC50 is given for each of the following compounds.
FYI, pIC50 means -log10 of a concentration in mol per litre.

Here are 5 compounds together with their reported answers.
>  <Substance smiles>
Nc1ccc(-c2ccc(C[C@H](c3nnn[nH]3)[C@@H](C(=O)O)C3CCCC3)cc2)cn1

>  <Measurement kind>
pIC50

>  <Numeric result>
7.72

$$$$
>  <Substance smiles>
O=C(O)[C@@H](C1CCCC1)[C@H](Cc1ccc(-c2cn[nH]c2)cc1)c1nnn[nH]1

>  <Measurement kind>
pIC50

>  <Numeric result>
7.60

$$$$
>  <Substance smiles>
CC(C)C[C@H](C(=O)O)[C@H](Cc1cc(F)cc(Br)c1)c1nnn[nH]1

>  <Measurement kind>
pIC50

>  <Numeric result>
6.64

$$$$
>  <Substance smiles>
CCC[C@H](C(=O)O)[C@H](Cc1ccc(N2CCN(CCO)CC2)cc1)c1nn[nH]n1

>  <Measurement kind>
pIC50

>  <Numeric result>
6.55

$$$$
>  <Substance smiles>
CCC[C@H](C(=O)O)[C@H](Cc1ccc(-c2cnc(N3CCCC3)s2)cc1)c1nn[nH]n1

>  <Measurement kind>
pIC50

>  <Numeric result>
7.35

$$$$

Qu. Can you share its pIC50? I mean this compound: `CC(C)C[C@H](C(=O)O)[C@H](Cc1ccc2cc(NCCO)cnc2c1)c1nnn[nH]1`
Ans. 7.10

Qu. Cool, now `CC(C)[C@H](C(=O)O)[C@H](Cc1ccc(N2CCC[C@@H]2CO)nc1)c1nnn[nH]1`
Ans. 5.00

---

target: NDM-1 (Klebsiella pneumoniae); assay: Enzyme activity: determination of IC50, fluorescence assay with CCF2-FA substrate; assay type: biochemical; conditions: NDM-1 enzyme 1 pM, CCF2-FA 1.25 μM, 2 hours at 25° C.; read-out: NDM1 IC50
Items are presented alongside their recorded log10 IC50.
Annotation: log10 of IC50, nM basis.

Consider the worked cases shown below.
>  <Compound>
CCC[C@H](C(=O)O)[C@H](Cc1ccc(C2CCNC2)nc1)c1nnn[nH]1 (stereo partly shown)

>  <log10 IC50>
2.91

$$$$
>  <Compound>
CCC[C@H](C(=O)O)[C@H](Cc1ccc(C(=O)N(C)C)cc1)c1nnn[nH]1

>  <log10 IC50>
1.00

$$$$
>  <Compound>
CCC[C@H](C(=O)O)[C@H](Cc1ccc(CCC(O)CO)cc1)c1nn[nH]n1 (stereo partly shown)

>  <log10 IC50>
1.64

$$$$
>  <Compound>
CCC[C@H](C(=O)O)[C@H](Cc1ccc2c(c1)CNC2)c1nnn[nH]1

>  <log10 IC50>
2.73

$$$$
>  <Compound>
CCC[C@H](C(=O)O)[C@H](Cc1cccc(N(C)CCN(C)C)c1)c1nn[nH]n1

>  <log10 IC50>
2.59

$$$$

Qu. Entry `CC(C)C[C@H](C(=O)O)[C@H](Cc1ccc(Oc2ccc(CO)cc2)nc1)c1nn[nH]n1` : reported log10 IC50 = ?
Ans. 1.53

Qu. `CC(C)C[C@H](C(=O)O)[C@H](Cc1ccc(N2CC(C(C)(C)O)C2)nc1)c1nnn[nH]1` , same question.
Ans. 2.11

Qu. Also check `CCC[C@H](C(=O)O)[C@H](Cc1cnc(N2CCOCC2)nc1)c1nnn[nH]1`
Ans. 2.00

Qu. How about this compound: CC(C)C[C@H](C(=O)O)[C@H](Cc1ccc(C2=CCCNC2)c(F)c1)c1nn[nH]n1 [Example 450, 2,2,2-trifluoroacetate]
Ans. 1.95

Qu. Record: CNC(=O)C1CCCN(c2ccc(C[C@H](c3nnn[nH]3)[C@H](CC(C)C)C(=O)O)cn2)C1 (stereo partly shown)
Ans. 1.94

Qu. Similarly, `CCC[C@H](C(=O)[O-])[C@H](Cc1cc[n+](C)cc1)c1nnn[nH]1` ?
Ans. 3.11

Qu. // repeat for CC(C)C[C@H](C(=O)O)[C@H](Cc1ccc(-c2ccc(CN)cc2)c(F)c1)c1nn[nH]n1 [Example 454, 2,2,2-trifluoroacetate] and report
Ans. 1.47

Qu. Follow-up item: `CCC[C@H](C(=O)O)[C@H](Cc1ccc(C2CCN(C=N)CC2)nc1)c1nnn[nH]1`
Ans. 2.34

Qu. // same read-out, input: CCC[C@H](C(=O)O)[C@H](Cc1cccc(-c2cccc(C3CCCNC3)c2)c1)c1nn[nH]n1 (stereo partly shown)
Ans. 1.59

Qu. Moving on to `CCC[C@H](C(=O)O)[C@H](Cc1ccc(C(=O)NC)cc1)c1nnn[nH]1`
Ans. 3.00

Qu. # repeat for CC(C)(C)[C@H](C(=O)O)C(Cc1ccc(N)nc1)c1nnn[nH]1 (stereo partly shown)
Ans. 1.86

---

biological target: IMP-1 (Serratia marcescens); assay: Enzyme activity: determination of IC50, fluorescence assay with CCF2-FA substrate; format: biochemical; settings: IMP-1 enzyme 2 pM, CCF2-FA 1.25 μM, 2 hours at 25° C.; read-out: IMP1 IC50
Measurement kind: IC50 (nM)
Numeric answer only, unit nM assumed.

>  <Compound>
CC(C)C[C@H](C(=O)O)[C@H](Cc1ccc(Oc2ccccc2)nc1)c1nn[nH]n1 [Example 381]

>  <IC50 (nM)>
86

$$$$

Qu. API: value(readout=IC50, system=IMP-1 (Serratia marcescens)) for record O=C(O)[C@@H](CCCC1CCNCC1)[C@H](Cc1ccc(C2CCNC2)cc1)c1nnn[nH]1 (some centres unmarked) [Example 434]
Ans. 2000

Qu. Note, next up: CC(C)C[C@H](C(=O)O)[C@H](Cc1ccc(N2CCC3(CC2)CNC3)nc1)c1nnn[nH]1 [Example 308]
Ans. 370

Qu. Also CCC[C@H](C(=O)O)[C@H](Cc1ccccc1-c1ccncc1)c1nn[nH]n1 [Example 397] , if possible.
Ans. 5000

Qu. CCC[C@H](C(=O)O)[C@H](Cc1ccc(CCN2CCCCC2=O)cc1)c1nn[nH]n1 [Example 256] , same question.
Ans. 45

Qu. Quick one: CCC[C@H](C(=O)O)[C@H](Cc1ccc(C2CCNCC2)cc1)c1nnn[nH]1 [Example 412]
Ans. 275

Qu. Could you do the same for CC(C)C[C@H](C(=O)O)[C@H](Cc1ccc(Oc2ccc(C(C)N)nc2)nc1)c1nn[nH]n1 (some centres unmarked) [Example 380] , please?
Ans. 64

Qu. Follow-up entry: CCC[C@H](C(=O)O)[C@H](Cc1cccc(-c2cccc(C3CCCNC3)c2)c1)c1nn[nH]n1 (some centres unmarked) [Example 345]
Ans. 270

---

target: NDM-1 (Klebsiella pneumoniae, UniProt C7C422); test: Enzyme activity: determination of IC50, fluorescence assay with CCF2-FA substrate; format: biochemical; settings: NDM-1 enzyme 1 pM, CCF2-FA 1.25 μM, 2 hours at 25° C.; read-out: NDM1 IC50
Sequence (C7C422 29-270, looked up, species assumed): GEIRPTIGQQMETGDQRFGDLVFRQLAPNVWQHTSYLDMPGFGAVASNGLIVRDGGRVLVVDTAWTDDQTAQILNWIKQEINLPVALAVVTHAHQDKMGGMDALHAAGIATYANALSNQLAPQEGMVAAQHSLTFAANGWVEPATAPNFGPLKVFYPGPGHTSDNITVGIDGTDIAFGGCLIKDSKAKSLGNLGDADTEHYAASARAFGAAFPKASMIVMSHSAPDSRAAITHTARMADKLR
Measurement kind: log10 IC50 (log10 of the value in nM)
Please interpret these as log10 of IC50 where IC50 is in nM.

Sample records with log10 IC50:
>  <Compound>
CCC[C@H](C(=O)O)[C@H](Cc1ccccc1-c1ccc(S(N)(=O)=O)cc1)c1nn[nH]n1

>  <Tested system>
NDM-1 (Klebsiella pneumoniae, UniProt C7C422)

>  <log10 IC50>
0.59

$$$$
>  <Compound>
CCC[C@H](C(=O)O)[C@H](Cc1ccccc1-c1cccnc1)c1nn[nH]n1

>  <Tested system>
NDM-1 (Klebsiella pneumoniae, UniProt C7C422)

>  <log10 IC50>
0.96

$$$$
>  <Compound>
CCC[C@H](C(=O)O)[C@H](Cc1cccc(-c2ccc(C3CCNCC3)cc2)c1)c1nn[nH]n1

>  <Tested system>
NDM-1 (Klebsiella pneumoniae, UniProt C7C422)

>  <log10 IC50>
1.41

$$$$
>  <Compound>
CCC[C@H](C(=O)O)[C@H](Cc1ccccc1-c1ccc(C(N)=O)cc1)c1nn[nH]n1

>  <Tested system>
NDM-1 (Klebsiella pneumoniae, UniProt C7C422)

>  <log10 IC50>
0.34

$$$$
>  <Compound>
CCC[C@H](C(=O)O)[C@H](Cc1cccc(-c2cccc(C(N)=O)c2)c1)c1nn[nH]n1

>  <Tested system>
NDM-1 (Klebsiella pneumoniae, UniProt C7C422)

>  <log10 IC50>
0.82

$$$$

With those in mind, consider the next compound.
Qu. Would you kindly share the measured log10 IC50 for `CC(C)C[C@H](C(=O)O)[C@H](Cc1ccc(N[C@H]2CC[C@H](N)C2)nc1)c1nnn[nH]1` ?
Ans. 2.54
